Tested on: NCI-H322M lung
Experiment: NCI-60 one-dose screen, 48 h (100 = growth as untreated, 0 = no growth, -100 = all killed)
Settings: 10 µM unless noted
About 83,000 compounds went through this panel and 20% of them were active in at least one assay; those are over-represented in the sample as a whole.
Record form. Attribute: growth. Fill in for each entry.
Give a bare numeral; the unit % is implied.

Field growth (entry COc1ccc(C2NC(=O)Nc3ccccc32)c(OC)c1 (stereo not given) ) reads 96.6

Field growth (entry `COc1cc(OC)c2c(c1)c1nc3cc(C)c(C)cc3nc1n2CCN(C)C` ) reads 87.1

Field growth (entry `Oc1ccc(Nc2ccccc2)cc1` ) reads 77.7

Field growth (entry `CCN1CCN(C(=O)[C@]23CC[C@@H](C)[C@H](C)[C@H]2C2=CC[C@@H]4[C@@]5(C)C/C(=C/c6cccc(OC)c6OC)C(=O)C(C)(C)[C@@H]5CC[C@@]4(C)[C@]2(C)CC3)CC1` ) reads 83.7

Field growth (entry `Cc1ccc(-c2nc([P+](c3ccccc3)(c3ccccc3)c3ccccc3)c(N3C[C@H]4C[C@H](C3)c3cccc(=O)n3C4)o2)cc1` ) reads 94.3

====

System: 786-0 renal
Assay: NCI-60 one-dose screen, 48 h (100 = growth as untreated, 0 = no growth, -100 = all killed)
Settings: 10 µM unless noted
The panel holds about 83,000 compounds, 20% with a hit somewhere; the sample as a whole holds those more often.
MEASURE NAME: growth (%)
Give a bare numeral; the unit % is implied.

So the reported growth for `Nc1c(C(=O)Nc2c(Cl)cccc2Cl)sc2nc3c(cc12)CCCC3` , on 786-0 renal, turned out to be 103

So the reported growth for `Fc1ccc(NCc2nnc(-c3ccc(Cl)cc3)o2)cc1` , on 786-0 renal, turned out to be 87.8

So the reported growth for `COc1cccc(NC(=O)c2sc3nc4c(cc3c2N)C(=O)CCC4)c1` , on 786-0 renal, turned out to be 41.1

So the reported growth for `Clc1ccc2c(NCCNc3nc(-c4ccccc4)cc(-c4ccccc4)n3)ccnc2c1` , on 786-0 renal, turned out to be -90.8

So the reported growth for `COc1ccc(O)c(-c2cc(-c3ccc(Cl)cc3)c(C#N)c(=O)[nH]2)c1` , on 786-0 renal, turned out to be 68.3

So the reported growth for `Cn1cc(-c2csc(-c3cn(CCCN4CCCCC4)c4ccc(F)cc34)n2)c2cccnc21` , on 786-0 renal, turned out to be 40.3

So the reported growth for `C#Cc1cc2c(N)c(C(=O)c3cc(OC)c(OC)c(OC)c3)[nH]c2cc1OC` , on 786-0 renal, turned out to be 46.8

So the reported growth for `O=C1c2ccccc2C(=Cc2ccccc2)c2ccccc21` , on 786-0 renal, turned out to be -15.9

So the reported growth for CC1(C)c2ccccc2C(=O)C1(Br)Cc1ccccc1 (stereo not given) , on 786-0 renal, turned out to be 81.7

So the reported growth for `COc1ccc2nc(-c3cc(-c4cc(OC)c(OC)c(OC)c4)n[nH]3)[nH]c2c1` , on 786-0 renal, turned out to be 59.5

====

Record form. Attribute: growth. Fill in for each entry.
System: HT29 colon
Assay: NCI-60 one-dose screen, 48 h (100 = growth as untreated, 0 = no growth, -100 = all killed)
Conditions: 10 µM unless noted
This is part of a sample that, as a whole, favours compounds with a hit. Of some 83,000 tested, about 20% had one in any assay.
Give a bare numeral; the unit % is implied.

Field growth (entry `Cn1c(=O)c2c(nc(Br)n2CC(=O)Nc2ccc(F)cc2)n(C)c1=O` ) reads 97.8

Field growth (entry `Cc1cc(C)c(NC(=O)c2sc3nc4c(cc3c2N)CCCC4)c(C)c1` ) reads 13.9

Field growth (entry `N#CCCCCCn1c2ccccc2c2c3c(c4c5ccccc5n(CCCCCC#N)c4c21)C(=O)N(O)C3=O` ) reads 68

Field growth (entry `COc1cnc2c(c1)C(=O)c1c-2n(CCCNC(C)C)c(=O)c2cc([N+](=O)[O-])ccc12` ) reads -33.7

Field growth (entry `COC(=O)[C@]12CC[C@@H](C)[C@H](C)[C@@H]1C1=CC[C@@H]3[C@@]4(C)C(c5ncon5)=C[C@@](C)(CO)C4=CC[C@@]3(C)[C@]1(C)CC2` ) reads -68.2

Field growth (entry CC1(C)NC2=C(C(Nc3cccnc3)N1)C(c1ccc([N+](=O)[O-])cc1)C(C(=O)c1ccc(N=[N+]=[N-])cc1)O2 (stereo not drawn) ) reads 113

Field growth (entry `Cc1[c-]onc1C.Cc1[c-]onc1C.[Ag].[Ag].[NH-]S(=O)(=O)c1ccc(N=Nc2cc(N=Nc3ccc(S([NH-])(=O)=O)cc3)c3c(NC(=O)C(Cl)Cl)cccc3c2OC(=O)C(Cl)Cl)cc1` ) reads 78.3

Field growth (entry `COc1cc2nc(Cl)nc(Nc3cccc(C(=O)/C=C/c4ccc(Cl)cc4)c3)c2cc1OC` ) reads 19.6

Field growth (entry `O=C(/C=C\c1ccc2c(c1)OCO2)/C=C/c1ccc2c(c1)OCO2` ) reads 32.1

Field growth (entry `CC1(n2nnnc2N2CCCN(c3ncccc3N)CC2)CCC1` ) reads 108

Field growth (entry `O=S(=O)(NCCCNc1cc(-c2cn(-c3ccccc3)nc2-c2cccc(O)c2)ccn1)c1ccc(F)cc1` ) reads 0.761

Field growth (entry `Nc1c(C(=O)Nc2c(Cl)cccc2Cl)sc2nc3c(cc12)CCCC3` ) reads 43.3

Field growth (entry `NS(=O)(=O)c1ccc(CCNC(=O)/C=C/c2ccc(Cl)cc2)cc1` ) reads 95.7

Field growth (entry `CCCCCCCC(=O)SCC/C=C/[C@@H]1CC(=O)NCc2cccc(n2)CN(Cc2ccc(Cl)cc2)CC(=O)N[C@@H](C(C)C)C(=O)O1` ) reads -2.23

Field growth (entry `O=C1NC(=Nc2ccc(S(=O)(=O)Nc3nccs3)cc2)S/C1=C\c1coc2ccccc2c1=O` ) reads 97.6

Field growth (entry `COC(=O)CNc1nc(N(C)O)nc(N(C)O)n1` ) reads 41.7

Field growth (entry c1ccc(CN2C(c3ccccc3)=Nc3ccccc3C2c2c[nH]c3ccccc23)cc1 (stereo not drawn) ) reads 15.1

Field growth (entry `C=C1C(=O)O[C@H]2[C@H]1CC/C(Cn1cc(-c3ccc(F)cc3)nn1)=C\CC[C@@]1(C)O[C@@H]21` ) reads -84.8
